Taken from ChEMBL document CHEMBL4428066.

Target: UniProtKB P04629
Sequence (P04629 whole entry): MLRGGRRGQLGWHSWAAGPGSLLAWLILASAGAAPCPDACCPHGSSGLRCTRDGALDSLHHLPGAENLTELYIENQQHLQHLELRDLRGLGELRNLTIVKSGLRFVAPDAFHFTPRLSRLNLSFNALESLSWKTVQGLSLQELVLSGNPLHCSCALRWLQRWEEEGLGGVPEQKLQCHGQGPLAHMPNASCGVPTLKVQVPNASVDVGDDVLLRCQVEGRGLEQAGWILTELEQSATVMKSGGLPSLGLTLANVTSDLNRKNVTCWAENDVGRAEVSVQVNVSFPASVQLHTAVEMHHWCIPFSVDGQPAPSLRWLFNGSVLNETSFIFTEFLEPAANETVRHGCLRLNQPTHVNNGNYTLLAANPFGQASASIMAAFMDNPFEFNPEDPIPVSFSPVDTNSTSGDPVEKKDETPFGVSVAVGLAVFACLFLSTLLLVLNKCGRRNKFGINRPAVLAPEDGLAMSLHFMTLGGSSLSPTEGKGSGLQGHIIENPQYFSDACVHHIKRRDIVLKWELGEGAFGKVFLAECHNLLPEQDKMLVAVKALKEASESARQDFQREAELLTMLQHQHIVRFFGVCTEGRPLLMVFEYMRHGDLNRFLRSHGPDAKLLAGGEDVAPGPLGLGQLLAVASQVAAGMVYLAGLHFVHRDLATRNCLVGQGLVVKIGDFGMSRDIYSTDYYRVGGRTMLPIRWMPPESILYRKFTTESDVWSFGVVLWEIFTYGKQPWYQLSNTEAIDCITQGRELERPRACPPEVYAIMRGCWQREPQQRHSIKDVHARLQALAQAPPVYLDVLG
Assay: Inhibition of partial length human TRKA expressed in mammalian system
Property Name: IC50 (nM)
Form entry: value (nM) — number only.

Name the recorded IC50 of the item Cc1c(-c2ccc(C(N)=O)c3[nH]c4cc(C(C)(C)O)ccc4c23)cccc1-n1cnc2ccccc2c1=O in your answer.
30

* * *

Assay: Cmax in cynomolgus monkey plasma at 2 mg/kg, administered through oral gavage after 0.25 to 48 hrs by LC/MS/MS analysis
Format: ADME, organism-based, Macaca fascicularis
Design: dose 2 mg/kg, route oral
Property Name: Cmax (µM)
Form entry: value (µM) — number only.

Name the recorded Cmax of the item Cc1c(-c2ccc(C(N)=O)c3[nH]c4cc(C(C)(C)O)ccc4c23)cccc1-n1cnc2ccccc2c1=O in your answer.
4.8

* * *

Assay: Plasma clearance in mouse at 2 mg/kg, iv through bolus administration after 0.05 to 24 hrs by LC/MS/MS analysis
Assay type: ADME, organism-based
Property Name: clearance (mL/min/kg)
Form entry: value (mL/min/kg) — number only.

Name the recorded clearance of the item Cc1c(-c2ccc(C(N)=O)c3[nH]c4cc(C(C)(C)O)ccc4c23)cccc1-n1cnc2ccccc2c1=O in your answer.
4.9

* * *

Experiment: Protein binding in mouse serum
Format: ADME, cell-free
Settings: read-out: PB
Property Name: fraction unbound

Name the recorded fraction unbound of the item Cc1c(-c2ccc(C(N)=O)c3[nH]c4cc(C(C)(C)O)ccc4c23)cccc1-n1cnc2ccccc2c1=O in your answer.
0.01

* * *

Experiment: Volume of distribution in steady state in mouse at 2 mg/kg, iv through bolus administration after 0.05 to 24 hrs by LC/MS/MS analysis
Assay type: ADME, organism-based
Conditions: in vivo, read-out: Vdss
Property Name: Vd (L/kg)
Form entry: value (L/kg) — number only.

Name the recorded Vd of the item Cc1c(-c2ccc(C(N)=O)c3[nH]c4cc(C(C)(C)O)ccc4c23)cccc1-n1cnc2ccccc2c1=O in your answer.
1.7

* * *

Molecular target: Tyrosine-protein kinase BTK (Mus musculus)
Sequence (P35991 whole entry): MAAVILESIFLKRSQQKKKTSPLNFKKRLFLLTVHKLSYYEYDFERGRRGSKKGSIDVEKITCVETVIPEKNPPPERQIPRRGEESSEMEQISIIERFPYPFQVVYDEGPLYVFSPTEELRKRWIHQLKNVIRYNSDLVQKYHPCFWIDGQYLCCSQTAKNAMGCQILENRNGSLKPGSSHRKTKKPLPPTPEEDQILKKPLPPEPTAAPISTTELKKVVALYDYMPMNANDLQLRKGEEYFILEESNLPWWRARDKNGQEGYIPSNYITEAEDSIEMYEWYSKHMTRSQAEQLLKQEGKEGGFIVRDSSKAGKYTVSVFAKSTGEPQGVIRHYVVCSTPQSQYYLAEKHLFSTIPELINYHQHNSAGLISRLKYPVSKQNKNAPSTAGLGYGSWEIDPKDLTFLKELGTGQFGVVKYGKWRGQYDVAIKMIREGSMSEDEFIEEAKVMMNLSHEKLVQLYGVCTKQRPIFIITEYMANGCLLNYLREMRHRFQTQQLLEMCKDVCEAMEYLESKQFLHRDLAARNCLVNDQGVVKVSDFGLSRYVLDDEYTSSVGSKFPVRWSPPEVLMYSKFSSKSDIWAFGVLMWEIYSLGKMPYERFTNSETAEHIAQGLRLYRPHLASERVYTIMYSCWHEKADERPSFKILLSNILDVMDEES
Experiment: Inhibition of BTK in mouse whole blood assessed as suppression of BCR/anti-IgM stimulated CD69 surface expression on B cells after 18 hrs by FACS analysis
Property Name: pIC50
Remember, pIC50 is on a log scale: it is -log10 of the molar concentration.

Name the recorded pIC50 of the item Cc1c(-c2ccc(C(N)=O)c3[nH]c4cc(C(C)(C)O)ccc4c23)cccc1-n1cnc2ccccc2c1=O in your answer.
5.69

* * *

Biological target: Cytochrome P450 2C8 (Homo sapiens, UniProt P10632)
Sequence (P10632 whole entry): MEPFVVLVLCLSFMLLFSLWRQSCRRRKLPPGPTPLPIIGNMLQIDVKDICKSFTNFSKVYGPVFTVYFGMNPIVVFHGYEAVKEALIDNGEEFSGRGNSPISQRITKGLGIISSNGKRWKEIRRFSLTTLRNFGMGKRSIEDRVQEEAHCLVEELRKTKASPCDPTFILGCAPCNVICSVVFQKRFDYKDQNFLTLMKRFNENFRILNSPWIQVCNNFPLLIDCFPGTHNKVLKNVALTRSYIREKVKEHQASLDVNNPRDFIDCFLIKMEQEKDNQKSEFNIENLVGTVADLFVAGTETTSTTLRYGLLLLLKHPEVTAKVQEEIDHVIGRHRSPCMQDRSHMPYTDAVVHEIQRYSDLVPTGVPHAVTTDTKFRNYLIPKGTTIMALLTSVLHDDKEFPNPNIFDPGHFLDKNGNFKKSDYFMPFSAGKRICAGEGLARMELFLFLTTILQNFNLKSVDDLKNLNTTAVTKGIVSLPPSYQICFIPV
Property Name: IC50

Please respond with reported IC50 (system Cytochrome P450 2C8 (Homo sapiens, UniProt P10632)) for Cc1c(-c2ccc(C(N)=O)c3[nH]c4cc(C(C)(C)O)ccc4c23)cccc1-n1cnc2ccccc2c1=O .
> 8 µM

* * *

Target: Receptor tyrosine-protein kinase erbB-4 (Homo sapiens)
Sequence (Q15303 whole entry): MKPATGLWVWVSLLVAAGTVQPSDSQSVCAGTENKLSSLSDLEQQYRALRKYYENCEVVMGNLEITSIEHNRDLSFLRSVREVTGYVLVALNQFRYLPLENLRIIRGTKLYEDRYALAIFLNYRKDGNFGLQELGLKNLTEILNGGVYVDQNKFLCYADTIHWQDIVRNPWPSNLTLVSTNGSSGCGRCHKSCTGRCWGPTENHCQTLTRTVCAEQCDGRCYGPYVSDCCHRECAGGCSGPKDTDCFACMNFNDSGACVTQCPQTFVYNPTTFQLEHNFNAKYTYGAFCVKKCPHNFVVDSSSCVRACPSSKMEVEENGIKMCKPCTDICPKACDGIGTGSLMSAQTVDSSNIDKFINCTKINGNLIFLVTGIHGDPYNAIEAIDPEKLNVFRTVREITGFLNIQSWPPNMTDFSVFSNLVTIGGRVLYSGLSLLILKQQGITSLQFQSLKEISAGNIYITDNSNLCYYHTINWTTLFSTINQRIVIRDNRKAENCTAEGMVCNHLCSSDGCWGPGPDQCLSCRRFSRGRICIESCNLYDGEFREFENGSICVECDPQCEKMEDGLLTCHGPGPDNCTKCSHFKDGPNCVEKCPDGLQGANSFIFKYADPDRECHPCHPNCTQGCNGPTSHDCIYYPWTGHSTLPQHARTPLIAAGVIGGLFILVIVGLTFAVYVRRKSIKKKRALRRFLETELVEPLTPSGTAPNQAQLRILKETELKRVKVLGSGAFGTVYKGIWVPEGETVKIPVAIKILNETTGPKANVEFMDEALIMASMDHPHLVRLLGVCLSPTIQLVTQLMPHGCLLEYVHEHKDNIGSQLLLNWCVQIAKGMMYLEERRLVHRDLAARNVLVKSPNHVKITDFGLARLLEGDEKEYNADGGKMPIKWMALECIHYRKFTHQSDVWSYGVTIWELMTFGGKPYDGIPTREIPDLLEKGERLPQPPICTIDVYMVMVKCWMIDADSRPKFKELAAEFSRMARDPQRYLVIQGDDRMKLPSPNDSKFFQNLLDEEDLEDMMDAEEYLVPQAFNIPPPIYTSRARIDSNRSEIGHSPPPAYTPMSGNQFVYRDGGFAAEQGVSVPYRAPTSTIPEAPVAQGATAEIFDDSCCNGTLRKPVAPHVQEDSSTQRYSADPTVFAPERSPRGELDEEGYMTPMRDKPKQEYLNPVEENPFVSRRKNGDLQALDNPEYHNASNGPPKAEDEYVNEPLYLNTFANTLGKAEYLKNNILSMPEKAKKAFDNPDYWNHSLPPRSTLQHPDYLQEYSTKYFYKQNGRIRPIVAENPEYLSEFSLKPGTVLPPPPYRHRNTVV
Test: Inhibition of partial length human HER4 expressed in bacterial system
Property Name: IC50 (µM)
Form entry: value (µM) — number only.

Name the recorded IC50 of the item Cc1c(-c2ccc(C(N)=O)c3[nH]c4cc(C(C)(C)O)ccc4c23)cccc1-n1cnc2ccccc2c1=O in your answer.
0.05

* * *

Ratio IC50 by entry:
Species on record: Homo sapiens
Assay: Selectivity ratio of IC50 for GST-tagged human recombinant LCK using FITC-AHAEGIYLFKKK-NH2 as substrate to IC50 for His-tagged full length human recombinant BTK expressed in baculovirus
When you answer, write just the number.

Consider the worked cases shown below.
Cc1c(-c2ccc(C(N)=O)c3[nH]c4cc(C(C)(C)O)ccc4c23)cccc1-n1cnc2cc(F)ccc2c1=O; 89
Cc1c(NC(=O)c2ccc(F)cc2)cccc1-c1ccc(C(N)=O)c2[nH]c3cc(NC(C)C)ccc3c12; 61
Cc1c(-c2ccc(C(N)=O)c3[nH]c4cc(C(C)(C)O)ccc4c23)cccc1-n1cnc2c(F)cccc2c1=O; 88

Name the recorded Ratio IC50 of the item Cc1c(-c2ccc(C(N)=O)c3[nH]c4cc(C(C)(C)O)ccc4c23)cccc1-n1ccc2ccccc2c1=O in your answer.
44

Name the recorded Ratio IC50 of the item Cc1c(-c2ccc(C(N)=O)c3[nH]c4cc(CO)ccc4c23)cccc1-n1cnc2ccccc2c1=O in your answer.
146
